- Test system: CAKI-1
- EXPERIMENT_NOTES: NCI tumour cell line growth inhibition, 48 h
Calls of active or inactive are those of the source. Rule as the data show it: active = GI50 up to about 1.1 µM and inactive = higher.
Property: GI50; scope: individual compounds

COMPOUND | GI50
Cc1cc(S(=O)(=O)NC2=NNC(C)CN2)c(S)cc1Cl (configuration not stated) | 56.8 µM (inactive)
COc1cc(C2c3cc4c(cc3OC(NCCO)C2C)OCO4)cc(OC)c1O (configuration not stated) | 19.2 µM (inactive)
CCOC(=O)/C=C/c1c[nH]c(=O)[nH]c1=O | > 75 µM (inactive)
COc1ccccc1NC(=O)c1nc2ccc([N+](=O)[O-])cc2nc1C | > 100 µM (inactive)
O=C(CNc1ccc(Cl)cc1Cl)NC1C=Cc2ccc(S(=O)(=O)Nc3ccc(Cl)cc3Cl)cc2C1=O (configuration not stated) | > 100 µM (inactive)
O=C(Nc1cc(Cl)c(Cl)cc1Cl)C(=O)C(C(=O)c1ccc2ccccc2c1)C1OC(=O)c2ccccc21 (configuration not stated) | > 10 µM (inactive)
CN(C)CCCN1c2ccc([N+](=O)[O-])cc2CCc2cc([N+](=O)[O-])ccc21 | 14.5 µM (inactive)
COC(=O)/C=C1/OC(c2ccccc2)=C(Br)C1=O | 24.8 µM (inactive)
O=C(O)CCNCCCNCCC(=O)O | > 100 µM (inactive)
CO/N=C(\C)CCC#Cc1ccccc1C(=O)OC | > 10 µM (inactive)
CCOC(=O)c1ccc2c(c1)Cc1cc([N+](=O)[O-])ccc1-2 | 36.6 µM (inactive)
COc1ccc(-c2nc(-c3cc4c(ccc5ccccc54)oc3=O)cs2)cc1 | > 100 µM (inactive)
[O-][S+](c1ccc(Cl)cc1)c1ccccc1C1=NCCN1 (configuration not stated) | > 100 µM (inactive)
Cc1cc(-c2cscn2)c(O)c([N+](=O)[O-])c1 | 43 µM (inactive)
COc1cc2c(cc1OC)C(=O)/C(=C/c1cc(C)c(O)c(C)c1)C2 | 0.0803 µM (active)
COc1cc2c(cc1OS(C)(=O)=O)N=C[C@@H]1CCCN1C2=O | > 100 µM (inactive)
COc1ccc(C(=O)/C=C/c2ccncc2)cc1OC | 15.7 µM (inactive)
COC(=O)C1(C(=O)OC)C/C(C)=C(/C)SCCCS1 | > 100 µM (inactive)
CN1CCN(c2nc3cc(F)ccc3n3cccc23)CC1 | 22 µM (inactive)
CC(C)C(N)C(=O)NC(CCC(=O)NCCCCC(N)C(=O)NCCCNc1ccc([N+](=O)[O-])c2[nH]c3ccccc3c(=O)c12)C(N)=O (configuration not stated) | > 100 µM (inactive)
CC1(C)CCC[C@]2(C)[C@@H]1CC[C@@]13O[C@@H]1C1=C(CO)C(=O)OC1=C[C@@H]23 | 18.8 µM (inactive)
O=c1nc(-c2ccccc2)scc1-c1ccccc1 | > 100 µM (inactive)

The origin of these recorded values is ChEMBL document CHEMBL1201862.
